system: 695427-040-R-J1-PDC complex spheroid viability; assay: Anticancer human tumor 695427-040-R-J1-PDC patient-derived colon adenocarcinoma cell line growth inhibition [RAS]; conditions: second compound 0.316 µM; first compound 0.03 µM; active compounds read low
# Lookup of reported viability, T/C keyed by entry
OUTCOME MEASURE: viability, T/C (%)

| COMPOUND | OUTCOME MEASURE | QUANTITATIVE READOUT |
| --- | --- | --- |
| CC1(C)CCC(Nc2ncc(C(F)(F)F)c(-c3c[nH]c4c(P(C)(C)=O)c(C#N)ccc34)n2)CN1 (centres undefined) + C#Cc1c(F)ccc2cc(O)cc(-c3ncc4c(N5CC6CCC(C5)N6)nc(OCC56CCCN5CC(F)C6)nc4c3F)c12 | viability, T/C | 74 |
| CCc1c2c(nc3ccc(O)cc13)-c1cc3c(c(=O)n1C2)COC(=O)[C@]3(O)CC + C=CC(=O)N1CCN(c2nc(OCC3CCCN3C)nc3c(F)c(-c4nc(N)cc(C)c4C(F)(F)F)c(Cl)cc23)C(C)C1 | viability, T/C | 80 |
| CCc1c2c(nc3ccc(O)cc13)-c1cc3c(c(=O)n1C2)COC(=O)[C@]3(O)CC + C#Cc1c(F)ccc2cc(O)cc(-c3ncc4c(N5CC6CCC(C5)N6)nc(OCC56CCCN5CC(F)C6)nc4c3F)c12 | viability, T/C | 67.1 |
| CC1(C)CCC(Nc2ncc(C(F)(F)F)c(-c3c[nH]c4c(P(C)(C)=O)c(C#N)ccc34)n2)CN1 (centres undefined) + C=CC(=O)N1CCN(c2nc(OCC3CCCN3C)nc3c(F)c(-c4nc(N)cc(C)c4C(F)(F)F)c(Cl)cc23)C(C)C1 | viability, T/C | 83.8 |

* * *

system: 695427-040-R-J1-PDC complex spheroid viability; assay: Anticancer human tumor 695427-040-R-J1-PDC cell line growth inhibition [RAS]; settings: second compound 0.316 µM; first compound 0.3 µM; active compounds read low;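 note: viability read after seven days of drug exposure; 100% = DMSO vehicle control viability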

| COMPOUND | STUDY SYSTEM | viability, T/C (%) |
| --- | --- | --- |
| CC1(C)CCC(Nc2ncc(C(F)(F)F)c(-c3c[nH]c4c(P(C)(C)=O)c(C#N)ccc34)n2)CN1 (centres undefined) + C#Cc1c(F)ccc2cc(O)cc(-c3ncc4c(N5CC6CCC(C5)N6)nc(OCC56CCCN5CC(F)C6)nc4c3F)c12 | 695427-040-R-J1-PDC complex spheroid viability | 70.4 |
| CCc1c2c(nc3ccc(O)cc13)-c1cc3c(c(=O)n1C2)COC(=O)[C@]3(O)CC + C#Cc1c(F)ccc2cc(O)cc(-c3ncc4c(N5CC6CCC(C5)N6)nc(OCC56CCCN5CC(F)C6)nc4c3F)c12 | 695427-040-R-J1-PDC complex spheroid viability | 25.7 |
| CC1(C)CCC(Nc2ncc(C(F)(F)F)c(-c3c[nH]c4c(P(C)(C)=O)c(C#N)ccc34)n2)CN1 (centres undefined) + C=CC(=O)N1CCN(c2nc(OCC3CCCN3C)nc3c(F)c(-c4nc(N)cc(C)c4C(F)(F)F)c(Cl)cc23)C(C)C1 | 695427-040-R-J1-PDC complex spheroid viability | 81.1 |
| CCc1c2c(nc3ccc(O)cc13)-c1cc3c(c(=O)n1C2)COC(=O)[C@]3(O)CC + C=CC(=O)N1CCN(c2nc(OCC3CCCN3C)nc3c(F)c(-c4nc(N)cc(C)c4C(F)(F)F)c(Cl)cc23)C(C)C1 | 695427-040-R-J1-PDC complex spheroid viability | 28.3 |

* * *

# Lookup of reported viability, T/C keyed by entry
system: 695427-040-R-J1-PDC complex spheroid viability; experiment: Anticancer human tumor 695427-040-R-J1-PDC cell line growth inhibition [RAS]; conditions: second compound 0.1 µM; first compound 0.316 µM; active compounds read low;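 note: viability read after seven days of drug exposure; 100% = DMSO vehicle control viability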

| COMPOUND | viability, T/C, % |
| --- | --- |
| C[C@@H](NC(=O)c1ncnc(N)c1Cl)c1ncc(C(=O)Nc2cc(C(F)(F)F)c(Cl)cn2)s1 + C=CC(=O)N1CCN(c2nc(OCC3CCCN3C)nc3c(F)c(-c4nc(N)cc(C)c4C(F)(F)F)c(Cl)cc23)C(C)C1 | 99.8 |
| O=C(c1ccc(F)c(F)c1Nc1ccc(I)cc1F)N1CC(O)([C@@H]2CCCCN2)C1 + C#Cc1c(F)ccc2cc(O)cc(-c3ncc4c(N5CC6CCC(C5)N6)nc(OCC56CCCN5CC(F)C6)nc4c3F)c12 | 15.7 |
| CC(Nc1ccc2c(c1)OCCn1cc(N3C(=O)OCC3C(F)F)nc1-2)C(N)=O (stereo not drawn) + C#Cc1c(F)ccc2cc(O)cc(-c3ncc4c(N5CC6CCC(C5)N6)nc(OCC56CCCN5CC(F)C6)nc4c3F)c12 | 59.6 |

* * *

test system: 695427-040-R-J1-PDC complex spheroid viability; assay: Anticancer human tumor 695427-040-R-J1-PDC cell line growth inhibition [RAS]; details: second compound 0.000949 µM; first compound 0.00949 µM; active compounds read low;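 note: viability read after seven days of drug exposure; 100% = DMSO vehicle control viability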
OUTCOME MEASURE: viability, T/C (%)

| COMPOUND | QUANTITATIVE READOUT |
| --- | --- |
| CCc1c2c(nc3ccc(O)cc13)-c1cc3c(c(=O)n1C2)COC(=O)[C@]3(O)CC + CCn1c(-c2cccnc2C(C)OC)c2c3cc(ccc31)N1CCOC(CC(NC(=O)C(C(C)C)N(C)C(=O)C3(F)CCN(C(=O)C#CC(C)(C)N(C)C)CC3)C(=O)N3CCCC(N3)C(=O)OCC(C)(C)C2)C1 | 84.2 |
| CC1(C)CCC(Nc2ncc(C(F)(F)F)c(-c3c[nH]c4c(P(C)(C)=O)c(C#N)ccc34)n2)CN1 (centres undefined) + CCn1c(-c2cc(N3CCN(C)CC3)cnc2C(C)OC)c2c3cc(ccc31)-c1csc(n1)CC(NC(=O)C1CC1C)C(=O)N1CCCC(N1)C(=O)OCC(C)(C)C2 | 84 |
| CC1(C)CCC(Nc2ncc(C(F)(F)F)c(-c3c[nH]c4c(P(C)(C)=O)c(C#N)ccc34)n2)CN1 (centres undefined) + CCn1c(-c2cccnc2C(C)OC)c2c3cc(ccc31)N1CCOC(CC(NC(=O)C(C(C)C)N(C)C(=O)C3(F)CCN(C(=O)C#CC(C)(C)N(C)C)CC3)C(=O)N3CCCC(N3)C(=O)OCC(C)(C)C2)C1 | 95.5 |
| CCc1c2c(nc3ccc(O)cc13)-c1cc3c(c(=O)n1C2)COC(=O)[C@]3(O)CC + CCn1c(-c2cc(N3CCN(C)CC3)cnc2C(C)OC)c2c3cc(ccc31)-c1csc(n1)CC(NC(=O)C1CC1C)C(=O)N1CCCC(N1)C(=O)OCC(C)(C)C2 | 75.6 |

* * *

# Lookup of reported viability, T/C keyed by entry
system: 695427-040-R-J1-PDC complex spheroid viability; assay: Anticancer human tumor 695427-040-R-J1-PDC cell line growth inhibition [RAS]; settings: second compound 0.3 µM; first compound 0.1 µM; active compounds read low;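 note: viability read after seven days of drug exposure; 100% = DMSO vehicle control viability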
OUTCOME MEASURE: viability, T/C (%)

| MOLECULE | STUDY SYSTEM | OUTCOME MEASURE | UNIT OF MEASUREMENT | QUANTITATIVE READOUT |
| --- | --- | --- | --- | --- |
| CC(=O)OC12COC1CC(O)C1(C)C(=O)C(O)C3=C(C)C(OC(=O)C(O)C(NC(=O)OC(C)(C)C)c4ccccc4)CC(O)(C(OC(=O)c4ccccc4)C21)C3(C)C (centres undefined) + CCn1c(-c2cccnc2C(C)OC)c2c3cc(ccc31)N1CCOC(CC(NC(=O)C(C(C)C)N(C)C(=O)C3(F)CCN(C(=O)C#CC(C)(C)N(C)C)CC3)C(=O)N3CCCC(N3)C(=O)OCC(C)(C)C2)C1 | 695427-040-R-J1-PDC complex spheroid viability | viability, T/C | % | 60.1 |
| Cc1nc(N2CCC3(CC2)COC(C)C3N)c(CO)nc1Sc1ccnc(N)c1Cl (centres undefined) + CCn1c(-c2cccnc2C(C)OC)c2c3cc(ccc31)N1CCOC(CC(NC(=O)C(C(C)C)N(C)C(=O)C3(F)CCN(C(=O)C#CC(C)(C)N(C)C)CC3)C(=O)N3CCCC(N3)C(=O)OCC(C)(C)C2)C1 | 695427-040-R-J1-PDC complex spheroid viability | viability, T/C | % | 70.9 |
| C=CC(=O)N1CCN(c2nc(OCC3CCCN3C)nc3c(F)c(-c4nc(N)cc(C)c4C(F)(F)F)c(Cl)cc23)C(C)C1 (centres undefined) + CCn1c(-c2cccnc2C(C)OC)c2c3cc(ccc31)N1CCOC(CC(NC(=O)C(C(C)C)N(C)C(=O)C3(F)CCN(C(=O)C#CC(C)(C)N(C)C)CC3)C(=O)N3CCCC(N3)C(=O)OCC(C)(C)C2)C1 | 695427-040-R-J1-PDC complex spheroid viability | viability, T/C | % | 88.8 |
| C[C@@H](NC(=O)c1ncnc(N)c1Cl)c1ncc(C(=O)Nc2cc(C(F)(F)F)c(Cl)cn2)s1 + CCn1c(-c2cc(N3CCN(C)CC3)cnc2C(C)OC)c2c3cc(ccc31)-c1csc(n1)CC(NC(=O)C1CC1C)C(=O)N1CCCC(N1)C(=O)OCC(C)(C)C2 | 695427-040-R-J1-PDC complex spheroid viability | viability, T/C | % | 44.2 |
